measured target: GPR40 (Rattus norvegicus, UniProt Q8K3T4)
Construct: expressed in transfected cells; host or cells: HEK293
Sequence (Q8K3T4 whole entry): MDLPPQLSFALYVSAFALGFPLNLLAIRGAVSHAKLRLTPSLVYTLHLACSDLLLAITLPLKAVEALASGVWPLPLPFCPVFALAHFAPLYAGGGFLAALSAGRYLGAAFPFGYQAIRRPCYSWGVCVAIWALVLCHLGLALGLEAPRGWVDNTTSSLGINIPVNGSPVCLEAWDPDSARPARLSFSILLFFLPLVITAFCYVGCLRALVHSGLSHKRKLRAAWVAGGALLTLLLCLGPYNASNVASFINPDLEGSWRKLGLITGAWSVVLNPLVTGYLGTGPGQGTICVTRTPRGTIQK
measurement protocol: In vitro FLIPR assay with recombinant HEK293 cells which express the GPCR GPR40 (intracellular Ca2+)
Type: cell-based
experimental parameters: recombinant HEK293 cells expressing GPR40; Fluo-4 Ca2+ signal; 100% = 10 μM linoleic acid
EC50 strictly less than 2 µM = rule met. Otherwise rule not met.

Qu. Dear reviewer, please state whether COC(CC(=O)O)c1ccc(NC(=O)C(C)Oc2cc(C)ccc2C(C)C)cc1 (stereo not drawn) has EC50 strictly beneath 2 µM.
Ans. rule not met

Qu. Find out if reported EC50 for COC(CC(=O)O)c1ccc(NC(=O)C(C)(C)Oc2ccc(Cl)cc2Cl)cc1 (stereo not drawn) is less than 2 µM
Ans. rule not met

Qu. Take the molecule CC#CC(CC(=O)O)c1ccc(NC(=O)C(C)(C)Oc2ccc(C(C)(C)C)cc2Br)cc1 (stereo not drawn) and say whether its EC50 is less than 2 µM.
Ans. rule not met

Qu. Does this molecule meet the criterion EC50 < 2 µM? COC(CC(=O)O)c1ccc(NC(=O)C(C)Oc2cccc(C(C)(C)C)c2)cc1 (stereo not drawn)
Ans. rule not met

Qu. Just wondering, is EC50 of COC(CC(=O)O)c1ccc(NC(=O)C(C)Oc2cc(C(C)C)ccc2C)cc1 (stereo not drawn) below 2 µM?
Ans. rule not met

Qu. Answer whether the molecule CC#CC(CC(=O)O)c1ccc(NC(=O)C(C)(C)Oc2ccc(C(C)C)cc2Br)cc1 (stereo not drawn) has EC50 strictly less than 2 µM
Ans. rule met

Qu. Below 2 µM on EC50? Entry CC#CC(CC(=O)O)c1ccc(NC(=O)C(C)(C)Oc2cccc(C(C)C)c2)cc1 (stereo not drawn)
Ans. rule met

Qu. Determine whether this molecule shows EC50 lower than 2 µM (ties excluded): CC#CC(CC(=O)O)c1ccc(NC(=O)C(C)Oc2cc(C)ccc2C(C)C)cc1 (stereo not drawn)
Ans. rule met

Qu. I wonder whether COC(CC(=O)O)c1ccc(NC(=O)C(C)(C)Oc2cccc(C(C)C)c2)cc1 (stereo not drawn) has EC50 below 2 µM. Can you tell?
Ans. rule met

Qu. Identify whether the molecule CC#CC(CC(=O)O)c1ccc(NC(=O)C(Oc2ccc(C(C)C)cc2Br)C(C)C)cc1 (stereo not drawn) records EC50 below 2 µM.
Ans. rule met

Qu. API: query returns whether the molecule falls strictly under 2 µM in EC50. Query: CC#CC(CC(=O)O)c1ccc(NC(=O)C(C)Oc2cccc(C(C)C)c2)cc1 (stereo not drawn)
Ans. rule met

Qu. Below 2 µM on EC50? Entry CC#CC(CC(=O)O)c1ccc(NC(=O)C(C)Oc2cc(C(C)C)ccc2C)cc1 (stereo not drawn)
Ans. rule met
